# experiment summary: in vivo
# Assay type: in vivo, male Sprague-Dawley rats
# setup conditions: rat, in vivo, iv, Tissue distribution, Adrenal
Let's look at some molecules and their measured tissue uptake at 5 min.
Note: unit %ID/g is implicit; provide only the numeric part.

Q: tissue uptake at 5 min lookup needed for "O=C1N[C@H]2[C@H](CS[C@H]2CCCCC[18F])N1" , thanks.
Ans: 1.56

***
Q: Which tissue uptake at 5 min is listed for "O=C(CCCC[C@@H]1SC[C@@H]2NC(=O)N[C@@H]21)NCCC[18F]" ?
Ans: 1

---

# experiment summary: in vivo
# Type: in vivo, male Sprague-Dawley rats
# setup conditions: rat, in vivo, iv, Tissue distribution, Norm mus
endpoint: tissue uptake at 5 min (%ID/g)
Form entry: value (%ID/g) — number only.

Q: Param item = "O=C1N[C@H]2[C@H](CS[C@H]2CCCCC[18F])N1" ; retrieve measured tissue uptake at 5 min.
Ans: 0.62

Let's switch to this compound now.
Q: Given the compound "O=C(CCCC[C@@H]1SC[C@@H]2NC(=O)N[C@@H]21)NCCC[18F]" , what is its reported tissue uptake at 5 min?
Ans: 0.83

---

# experiment summary: in vivo
# Type: in vivo, male Sprague-Dawley rats
# setup conditions: rat, in vivo, iv, Tissue distribution, Blood
Recorded measurements of tissue uptake at 5 min, one per entry
Give your result in %ID/g as a bare value.

Q: For "O=C1N[C@H]2[C@H](CS[C@H]2CCCCC[18F])N1" , what is its reported tissue uptake at 5 min?
Ans: 0.88

Okay, next one:
Q: Which tissue uptake at 5 min value is on record for "O=C(CCCC[C@@H]1SC[C@@H]2NC(=O)N[C@@H]21)NCCC[18F]" ?
Ans: 1.07

---

# reported tissue uptake at 1 h; entries follow
# experiment summary: in vivo
# Type: in vivo, male Sprague-Dawley rats
# setup conditions: rat, in vivo, iv, Tissue distribution, Inf mus
// units = %ID/g; emit number, no label

Q: tissue uptake at 1 h for O=C(CCCC[C@@H]1SC[C@@H]2NC(=O)N[C@@H]21)NCCC[18F] [Biotin 1] ?
Ans: 0.43

***
Q: Fill blank: measured tissue uptake at 1 h of the compound O=C1N[C@H]2[C@H](CS[C@H]2CCCCC[18F])N1 [Biotin 2] is ____.
Ans: 0.2

---

Measured tissue uptake at 5 min, listed per entry for reference.
# experiment summary: in vivo
# Assay type: in vivo, male Sprague-Dawley rats
# setup conditions: rat, in vivo, iv, Tissue distribution, Inf mus
State the answer as a number, implicitly in %ID/g.

Q: Look up tissue uptake at 5 min: "O=C1N[C@H]2[C@H](CS[C@H]2CCCCC[18F])N1"
Ans: 0.49

Now look at this one.
Q: Need tissue uptake at 5 min of "O=C(CCCC[C@@H]1SC[C@@H]2NC(=O)N[C@@H]21)NCCC[18F]" , thanks.
Ans: 1.22

---

# experiment summary: in vivo
# Format: in vivo, male Sprague-Dawley rats
# setup conditions: rat, in vivo, iv, Tissue distribution, Lung
endpoint: tissue uptake at 1 h

Q: Would you mind telling me what tissue uptake at 1 h value was observed for O=C1N[C@H]2[C@H](CS[C@H]2CCCCC[18F])N1 [Biotin 2] ?
Ans: 0.58 %ID/g

Alright, here's another compound for you.
Q: Would you kindly share the measured tissue uptake at 1 h for O=C(CCCC[C@@H]1SC[C@@H]2NC(=O)N[C@@H]21)NCCC[18F] [Biotin 1] ?
Ans: 0.11 %ID/g

Ref: patent EP0769966B1
